The measurements presented in this section are drawn from paper PMC5066224.

- System: A549
- ASSAY OVERVIEW: Trypan blue dye exclusion cell viability assay
- Assay type: cell-based
- COND: Homo sapiens, 48 h
pIC50: −log10 of the molar value.

MOLECULAR STRING	pIC50
COc1cc(/C=C/c2ccc(C)cc2)cc(OC)c1OC	5.28

* * *

- Tested on: CEM
- ASSAY OVERVIEW: Trypan blue dye exclusion cell viability assay
- Format: cell-based
- COND: Homo sapiens, CCRF-CEM, 48 h

MOLECULAR STRING	VALUE UNITS	IC50
COc1cc(/C=C/c2ccc(C)cc2)cc(OC)c1OC	µM	2.6

* * *

- ASSAYED TARGET: purified Tubulin
- ASSAY OVERVIEW: Fluorescence binding study, double reciprocal plot
- COND: double reciprocal plot of fluorescence data, 1:1 binding, 30 °C, ± SEM; read-out: dissociation constant (Kd)
pKd: −log10 of the molar value.
MEASUREMENT TYPE: pKd

MOLECULAR STRING	MEASUREMENT TYPE	RECORDED VALUE
COc1cc(/C=C/c2ccc(C)cc2)cc(OC)c1OC	pKd	6.38
